- Assay details: in vitro
- Cond: Beagle, dog, dog plasma diluted 1:1 with PBS, pH 7.4, Half-life in plasma (dog), dog plasma, 37 °C, incubation up to 60 min, LC-MS/MS
Non-standard residues stand in square brackets, D forms with d. Residues, ends and D or L forms follow the SMILES beside them. N(1-naphthylmethyl)Gly = O=C(O)CNCc1cccc2ccccc12; N(4-MeBn)Gly = Cc1ccc(CNCC(=O)O)cc1; NBuGly = CCCCNCC(=O)O
Measured quantity: half-life

Tell me half-life reported for CCCCN(CC(=O)N[C@@H](CCCCN)C(=O)N(CC(=O)N(CC(=O)N(CC(N)=O)Cc1cccc2ccccc12)Cc1ccc(C)cc1)Cc1cccc2ccccc12)C(=O)[C@H](CCCCN)NC(=O)[C@@H](N)CCCCN [Compound B1] (H-KK[NBuGly]K[N(1-naphthylmethyl)Gly][N(4-MeBn)Gly][N(1-naphthylmethyl)Gly]-NH2)
~30 min
